assay: Intrinsic clearance in human liver microsomes assessed per mg of protein at 1 uM preincubated for 5 mins followed by NADPH addition measured after 5 to 30 mins by LC-MS/MS analysis; type: ADME, Microsome; conditions: read-out: CLH
MEASURED PROPERTY: microsomal CLint at 1 µM (µL/min/mg)

(1) C[C@@H](c1cc2cccnc2cc1F)n1cnc2ncc(-c3ccc(C(N)=O)c(F)c3)nc21
(2) CC(c1c(F)cc2ncccc2c1F)n1cnc2ncc(-c3cnc4ccccc4c3)nc21 (stereo unspecified)
Exercise: Higher microsomal CLint at 1 µM between 1 and 2 ? Choose, then provide that item's label.
Solution: 2

(A) COC(=O)c1ccc(-c2cnc3ncn(C(C)c4c(F)cc5ncccc5c4F)c3n2)cc1F (stereo unspecified)
(B) CC(c1c(F)cc2ncccc2c1F)n1cnc2ncc(-c3cnn(CCO)c3)nc21 (stereo unspecified)
(C) CC(c1c(F)cc2ncccc2c1F)n1cnc2ncc(-c3cnn(C)c3)nc21 (stereo unspecified)
Exercise: Falling order of microsomal CLint at 1 µM, please. Please respond with the labels ordered as the question requires.
Solution: A, C, B

(P) C[C@@H](c1cc2cccnc2cc1F)n1cnc2ncc(-c3cnn(C)c3)nc21
(Q) CC(c1cc2cccnc2cc1F)n1cnc2ncc(-c3ccc(C(N)=O)c(F)c3)nc21 (stereo unspecified)
(R) COC(=O)c1ccc(-c2cnc3ncn(C(C)c4cc5cccnc5cc4F)c3n2)cc1F (stereo unspecified)
Exercise: Order the 3 molecules from highest to lowest microsomal CLint at 1 µM. Give the order by naming the labels one after another as requested.
Solution: R, Q, P
(R: 73 µL/min/mg, Q: 14 µL/min/mg, P: 8 µL/min/mg)

(a) CC(c1cc2cccnc2cc1F)n1cnc2ncc(-c3cnn(C)c3)nc21 (stereo unspecified)
(b) CC(c1c(F)cc2ncccc2c1F)n1cnc2ncc(-c3ccncc3)nc21 (stereo unspecified)
Exercise: Please compare: a and b . Report which one has the smaller microsomal CLint at 1 µM value. Pick one and reply with its label.
Solution: a
(a: 9 µL/min/mg, b: 14 µL/min/mg)

###

target: Mast/stem cell growth factor receptor Kit (Homo sapiens)
Sequence (P10721 whole entry): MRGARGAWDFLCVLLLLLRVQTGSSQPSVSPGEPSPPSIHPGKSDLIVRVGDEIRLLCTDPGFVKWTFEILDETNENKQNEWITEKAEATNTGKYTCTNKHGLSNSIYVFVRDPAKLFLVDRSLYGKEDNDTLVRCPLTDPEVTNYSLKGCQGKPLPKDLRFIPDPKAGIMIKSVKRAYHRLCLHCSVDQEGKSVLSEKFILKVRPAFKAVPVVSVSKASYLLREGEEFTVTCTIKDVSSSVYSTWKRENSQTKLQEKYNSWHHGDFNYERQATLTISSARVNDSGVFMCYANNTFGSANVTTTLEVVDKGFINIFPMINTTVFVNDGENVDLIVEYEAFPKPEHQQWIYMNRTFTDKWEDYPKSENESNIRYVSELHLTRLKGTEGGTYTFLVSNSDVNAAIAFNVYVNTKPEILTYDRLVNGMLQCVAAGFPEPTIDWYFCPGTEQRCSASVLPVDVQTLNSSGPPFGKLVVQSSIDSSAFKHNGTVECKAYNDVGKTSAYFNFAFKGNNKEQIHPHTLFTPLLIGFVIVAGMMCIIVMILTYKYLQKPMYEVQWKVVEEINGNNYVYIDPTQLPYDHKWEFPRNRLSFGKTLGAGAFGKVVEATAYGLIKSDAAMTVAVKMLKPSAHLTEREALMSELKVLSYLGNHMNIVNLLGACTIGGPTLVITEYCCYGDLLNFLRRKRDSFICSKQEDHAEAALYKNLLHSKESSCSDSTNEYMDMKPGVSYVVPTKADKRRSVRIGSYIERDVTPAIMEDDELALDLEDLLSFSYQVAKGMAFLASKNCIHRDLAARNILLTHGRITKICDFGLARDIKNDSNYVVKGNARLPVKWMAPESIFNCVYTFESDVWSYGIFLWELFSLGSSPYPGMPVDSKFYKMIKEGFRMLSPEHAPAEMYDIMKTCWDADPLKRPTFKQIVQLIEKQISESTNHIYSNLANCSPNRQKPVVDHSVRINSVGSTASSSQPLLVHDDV
MEASURED PROPERTY: IC50

C[C@@H](c1cc2cccnc2cc1F)n1cnc2ncc(-c3cnn(C)c3)nc21 on Mast/stem cell growth factor receptor Kit (Homo sapiens) gives IC50 = > 30 µM

###

experiment: Efflux ratio of permeability from basolateral to apical side over apical to basolateral side in Caco2 cells at 1 to 10 uM incubated for 90 mins by LC-MS/MS analysis; type: ADME, cell-based; details: human, Caco-2
MEASURED PROPERTY: efflux ratio at 1.5 h

Some solved entries appear below for comparison.
>  <COMPOUND>
CC(c1cc2cccnc2cc1F)n1cnc2ncc(-c3cnn(C)c3)nc21 (stereo unspecified)

>  <efflux ratio at 1.5 h>
1.02

$$$$
>  <COMPOUND>
C[C@@H](c1cc2cccnc2cc1F)n1cnc2ncc(-c3cnn(C)c3)nc21

>  <efflux ratio at 1.5 h>
1.04

$$$$
>  <COMPOUND>
C[C@@H](c1cc2cccnc2cc1F)n1cnc2ncc(-c3ccc(C(N)=O)c(F)c3)nc21

>  <efflux ratio at 1.5 h>
1.1

$$$$
>  <COMPOUND>
CNC(=O)c1ccc(-c2cnc3ncn(C(C)c4cc5cccnc5cc4F)c3n2)cc1F (stereo unspecified)

>  <efflux ratio at 1.5 h>
0.99

$$$$

(1) CC(c1cc2cccnc2cc1F)n1cnc2ncc(-c3ccc(C(N)=O)c(F)c3)nc21 (stereo unspecified)
(2) CC(=O)O[C@H]1C(=O)[C@@]2(C)[C@H]([C@H](OC(=O)c3ccccc3)[C@]3(O)C[C@H](OC(=O)[C@H](O)[C@@H](NC(=O)c4ccccc4)c4ccccc4)C(C)=C1C3(C)C)[C@]1(OC(C)=O)CO[C@@H]1C[C@@H]2O
Exercise: Identify the entry with the larger efflux ratio at 1.5 h. Options: 1 and 2 Respond using the label that marks the chosen record.
Solution: 2
